Test system: SNB-75 CNS
assay_protocol: NCI tumour cell line growth inhibition, 48 h

molecule	GI50
CCCn1c2c(c3ccccc3c1=O)C(=O)c1cc3c(cc1-2)OCO3	> 100 µM
Cn1cc(C2=C(c3cn(C)c4cc(C(=O)O)ccc34)C(=O)NC2=O)c2ccccc21	4.96 µM
Cc1nnc([S-])o1.[Au+].c1ccc([PH+](c2ccccc2)c2ccccc2)cc1	1.32 µM
O=C(C(Br)C(Br)c1ccccc1)C(Br)C(Br)c1ccccc1 (stereo not given)	1.77 µM
COc1cccc(-n2ncc3c(N/N=C/c4ccc(F)cc4)ncnc32)c1	5.98 µM
CCSc1ccc2c(c1)N(CCCN1CCN(C)CC1)c1ccccc1S2	1.79 µM
CCCCN(CCCC)CC(O)c1ccc(OCc2ccccc2)c2ccccc12 (stereo not given)	3.6 µM
CC(C)(C)CC(C)(C)c1ccc(OCCSC(=N)N)cc1	1.43 µM
C=C1C(=O)O[C@H]2[C@H]1CC/C(COC(=O)NCc1[nH]nc3ccccc13)=C\CC[C@@]1(C)O[C@@H]21	5.06 µM
COc1ccc(-c2cnoc2-c2ccc(OC)cc2O)cc1	1.72 µM

----------
Tested on: SF-268 CNS
assay_protocol: NCI tumour cell line growth inhibition, 48 h

compound	TGI
COc1cccc(-n2ncc3c(N/N=C/c4ccc(F)cc4)ncnc32)c1	> 25 µM
CCC(CC)COC(=O)[C@H](C)N[P@](=O)(OC[C@H]1O[C@@](C#N)(c2ccc3c(N)ncnn23)[C@H](O)[C@@H]1O)Oc1ccccc1	> 100 µM
N=C1N(c2ccccc2)C(=S)C(=Nc2ccccc2)N1c1ccccc1	29.7 µM
CCN(CC)c1ncnc2c1ncn2CCNC(CO)(CO)CO	> 100 µM
c1cc(N2CCN(c3ccc(C4=NCCN4)cc3)CC2)ccc1C1=NCCN1	> 100 µM
COc1cc(Br)c(CC2NCCc3cc(OC)c(OC)cc32)cc1OC (centres undefined)	> 100 µM
O=C(C(Br)C(Br)c1ccccc1)C(Br)C(Br)c1ccccc1 (centres undefined)	5.62 µM
NS(=O)(=O)c1ccc(Nc2ncc(-c3ccccc3)o2)cc1	> 25 µM
COC(=O)CCC(C)[C@H]1CCC2C3C(C[C@H](OC(C)=O)[C@@]21C)[C@@]1(C)CCC2(C[C@H]1C[C@H]3OC(C)=O)OOC1(CCCCCCC1)OO2 (some centres undefined)	> 100 µM

----------
Test system: SN12C renal
assay_protocol: NCI tumour cell line growth inhibition, 48 h
Where a SMILES comes first, the peptide text is derived from it. [ ]: non-standard residue; d: D form. Ac5c = NC1(C(=O)O)CCCC1

molecule	assay_system	TGI
COc1ccc(NCC#N)cc1	SN12C renal	> 100 µM
COC(=O)c1c2c(c(C)[n+]([O-])c1C)C(=O)C(NCc1cccc(Cl)c1)=CC2=O	SN12C renal	2.44 µM
CCOC(=O)c1oc2c(OC)cc(Cl)c3c2c1CCC3	SN12C renal	> 100 µM
COC(=O)c1cc2cc(-c3ccc(OC)cc3)cnc2[nH]1	SN12C renal	> 51.6 µM
COc1ccc2c(c1)O[C@@H]1[C@@H](OC3OC(CO)C(O)C(O)C3O)Oc3cc(OC)c(OC)cc3[C@]1(O)C2=O (some centres not stated)	SN12C renal	> 100 µM
CC1CCC(C(C)C2C(O)CC3C4CC=C5CC(O)CCC5(C)C4CCC32C)NC1 (configuration not stated)	SN12C renal	47.2 µM
CN=C(NC#N)N(Cc1ccccc1)Cc1ccccc1	SN12C renal	> 100 µM
CO[C@]12CC(=O)C3(C(C[C@H]4CC5CCC6=CC(=O)CC[C@]6(OC(C)=O)C5C[C@@]43C)C1)C1C[C@H]3[C@@H]4CCC5=CC(=O)CC[C@]5(OC(C)=O)[C@H]4CC[C@]3(C)C12 (some centres not stated)	SN12C renal	> 100 µM
C=C1C[C@]23CC[C@@H]4C(CO)(CO)CC(=O)C[C@]4(C)[C@@H]2CC[C@H]1C3	SN12C renal	> 100 µM
COc1ccc(NS(=O)c2ccc(Cl)cc2)cc1 (configuration not stated)	SN12C renal	> 100 µM
CN1CCN(Cc2ccc(NC(=O)c3nc4ccc5[nH]ncc5c4c4c3CCCC4)cc2C(F)(F)F)CC1	SN12C renal	1.65 µM
C=C1C(=O)O[C@H]2[C@H]1CC/C(COC(=O)NCc1ccc(Cn3c(=O)sn(CCI)c3=O)cc1)=C\CC[C@@]1(C)O[C@@H]21	SN12C renal	5.38 µM
CC(NC(=O)CNP(=O)(c1ccccc1)c1ccccc1)C(=O)NC(Cc1ccccc1)C(=O)OCc1ccccc1 (configuration not stated)	SN12C renal	> 100 µM
O=C1C2=C(CCCC2)Nc2cccc3ncn1c23	SN12C renal	> 100 µM
C[C@H](CCC(=O)O)[C@H]1CC[C@H]2[C@@H]3[C@@H](O)C[C@@H]4C[C@H](O)CC[C@]4(C)[C@H]3CC[C@]12C	SN12C renal	> 100 µM
O=CCOCc1cc2c(cc1Br)OCO2	SN12C renal	> 100 µM
CCCCSSC(=S)N(CC)CC	SN12C renal	> 100 µM
Cc1cc(O)c(C=NC(=S)C(N)=S)c(=O)o1	SN12C renal	> 100 µM
CSc1nn2c(-c3ccc4ccccc4c3)ccnc2c1C#N	SN12C renal	> 100 µM
Cc1cc([N+](=O)[O-])c(C)c2c1[nH]c1ccc(O)cc12	SN12C renal	> 100 µM
Cc1noc(NS(=O)(=O)c2ccc(NC(=O)c3ccc4nc5ccccc5c(Nc5ccc(S(=O)(=O)Nc6onc(C)c6C)cc5)c4c3)cc2)c1C	SN12C renal	> 100 µM
Cc1cc(C)c2c(=O)cc(-c3cccc(Cl)c3)[nH]c2n1	SN12C renal	> 38.3 µM
NCC(=O)NC1(C(=O)O)CCCC1 (H-Gly-[Ac5c]-OH)	SN12C renal	> 100 µM
CN(CCN(C)CCN(C)C(=O)Cc1ccc(Cl)c(Cl)c1)CCN1CCCC1	SN12C renal	> 100 µM
CC(C)(C)CC(C)(C)c1ccc(OCCSC(=N)N)cc1	SN12C renal	3.21 µM
COc1cc(-c2cc(/C=C3\C(=O)Nc4ccc(Cl)cc43)[nH]n2)cc(OC)c1OC	SN12C renal	> 100 µM
O=c1[nH]c2cc(Cl)ccc2nc1/C(=N/Nc1ccccc1)C(O)c1ccco1 (configuration not stated)	SN12C renal	> 100 µM
CCCCCCCCNC(=O)C1=C(C)NC(C)=C(C(=O)NCCCCCCCC)C1	SN12C renal	> 100 µM
Cc1ccc(-c2c(C#N)c(N)[nH]c(=S)c2C#N)cc1	SN12C renal	76 µM
O=NN(CCCl)C(=O)NC1CCC(C(=O)O)CC1 (configuration not stated)	SN12C renal	> 100 µM
C=C(C)C[C@H](Sc1nc2ccccc2s1)[C@H](C)O	SN12C renal	> 100 µM
CCN(CC)c1ncnc2c1ncn2CCNC(CO)(CO)CO	SN12C renal	> 100 µM
Brc1sc(Br)c2c1[C@H](Br)C[C@@H]2Br	SN12C renal	> 100 µM
CCC#CCCCCCCCCC(F)C(=O)O (configuration not stated)	SN12C renal	> 100 µM
COc1ccc(-c2cc3c(OC)c(OC)c(OC)cc3oc2=O)cc1	SN12C renal	> 100 µM
Cc1ccc(NC(=S)C#N)cc1Cl	SN12C renal	> 100 µM
O=C1c2ccc3c4c(ccc(c24)C(=O)N1CCCNCc1ccccc1F)C(=O)N(CCCNCc1ccccc1F)C3=O	SN12C renal	0.296 µM
Oc1ccc(/C=C/c2ccc(O)cc2)cc1	SN12C renal	> 100 µM
N#Cc1nc(-c2cccnc2)oc1N	SN12C renal	> 100 µM
CCC(CC)COC(=O)[C@H](C)N[P@](=O)(OC[C@H]1O[C@@](C#N)(c2ccc3c(N)ncnn23)[C@H](O)[C@@H]1O)Oc1ccccc1	SN12C renal	> 100 µM
c1cc(N2CCN(c3ccc(C4=NCCN4)cc3)CC2)ccc1C1=NCCN1	SN12C renal	> 26.4 µM
COc1ccc(CN2CCc3c(Sc4ccccc4)nc(N)nc3C2=O)c(OC)c1	SN12C renal	> 100 µM

----------
System: U251 CNS
Classes used: 1 (active), -1 (inactive)

compound	classification
Cn1cc(C2=C(c3cn(C)c4cc(C(=O)O)ccc34)C(=O)NC2=O)c2ccccc21	-1
CN1CCN(Cc2ccc(NC(=O)c3cnc(F)c(C#Cc4cnc(N)c5ncccc45)c3)cc2C(F)(F)F)CC1	1
CCC(CC)COC(=O)[C@H](C)N[P@](=O)(OC[C@H]1O[C@@](C#N)(c2ccc3c(N)ncnn23)[C@H](O)[C@@H]1O)Oc1ccccc1	-1
CC(C)(Oc1ccc(Cl)cc1)C(=O)NC1C2CC3CC1CC(NS(C)(=O)=O)(C3)C2 (centres undefined)	-1

----------
Test system: K-562 leukemia
assay_protocol: NCI tumour cell line growth inhibition, 48 h
assay_readout: TGI

compound	assay_readout	val
CC(C)(C)C1=NC(=S)SC2=NC(=O)C3(NN21)c1ccccc1-c1ccccc13	TGI	> 10 µM
CCCCCCCCCCCCC/C=C/[C@H]1[C@@H](C(=O)OC)N1S(=O)c1ccc(C)cc1 (stereo partly drawn)	TGI	> 100 µM
CCSc1ccc2c(c1)N(CCCN1CCN(C)CC1)c1ccccc1S2	TGI	> 100 µM

Taken from PubChem BioAssay (NCI).
